From: ChEMBL document CHEMBL3870312

# assayed.system: Amyloid-beta precursor protein (Homo sapiens) (UniProt P05067)
# Sequence (P05067 whole entry): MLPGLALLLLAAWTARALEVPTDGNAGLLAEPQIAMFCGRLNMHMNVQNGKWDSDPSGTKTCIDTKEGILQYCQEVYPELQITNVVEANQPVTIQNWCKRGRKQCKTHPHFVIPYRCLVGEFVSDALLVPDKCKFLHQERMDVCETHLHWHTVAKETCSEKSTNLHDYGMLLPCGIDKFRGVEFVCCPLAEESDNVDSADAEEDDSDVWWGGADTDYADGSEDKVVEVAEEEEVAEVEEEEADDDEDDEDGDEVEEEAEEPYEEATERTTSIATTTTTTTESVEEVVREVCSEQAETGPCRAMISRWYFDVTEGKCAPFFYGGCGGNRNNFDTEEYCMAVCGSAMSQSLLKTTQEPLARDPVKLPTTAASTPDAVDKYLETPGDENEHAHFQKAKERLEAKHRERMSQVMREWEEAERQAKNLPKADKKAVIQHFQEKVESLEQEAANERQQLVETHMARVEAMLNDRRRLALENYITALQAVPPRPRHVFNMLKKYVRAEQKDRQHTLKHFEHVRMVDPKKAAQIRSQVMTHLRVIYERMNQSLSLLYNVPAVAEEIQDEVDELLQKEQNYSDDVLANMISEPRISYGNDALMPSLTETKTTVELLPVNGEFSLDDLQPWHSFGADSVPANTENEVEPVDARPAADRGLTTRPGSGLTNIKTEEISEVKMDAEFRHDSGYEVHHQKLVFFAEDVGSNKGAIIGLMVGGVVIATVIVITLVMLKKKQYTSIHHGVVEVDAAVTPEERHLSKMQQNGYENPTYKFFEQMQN
# conditions: at 20 µM
# Description: Inhibition of self-mediated aggregation of amyloid beta (1 to 42 residues) (unknown origin) at 20 uM incubated for 46 to 48 hrs by Thioflavin T binding assay relative to control
assay.metric: inhibition (%)
The response must be a number in % with no trailing unit.

Consider the reported inhibition for these compounds:
[
  {
    "compound": "COc1cc2c(cc1OC)C(=O)C(CC1CCN(Cc3ccc4cccc(O)c4n3)CC1)C2 (stereo not drawn)",
    "inhibition (%)": 44.8
  },
  {
    "compound": "COc1cc2c(cc1OC)C(=O)C(CC1CCN(Cc3ncccc3C)CC1)C2 (stereo not drawn)",
    "inhibition (%)": 29.3
  },
  {
    "compound": "COc1cc2c(cc1OC)C(=O)C(CC1CCN(Cc3ccc(O)c4ncccc34)CC1)C2 (stereo not drawn)",
    "inhibition (%)": 51.1
  }
]

Now examine the next entry.
In plain terms, COc1cc2c(cc1OC)C(=O)C(CC1CCN(Cc3cccc(C)n3)CC1)C2 (stereo not drawn) has a documented inhibition of 18.5

* * *

# assayed.system: Acetylcholinesterase (Homo sapiens, UniProt P22303)
# Sequence (P22303 whole entry): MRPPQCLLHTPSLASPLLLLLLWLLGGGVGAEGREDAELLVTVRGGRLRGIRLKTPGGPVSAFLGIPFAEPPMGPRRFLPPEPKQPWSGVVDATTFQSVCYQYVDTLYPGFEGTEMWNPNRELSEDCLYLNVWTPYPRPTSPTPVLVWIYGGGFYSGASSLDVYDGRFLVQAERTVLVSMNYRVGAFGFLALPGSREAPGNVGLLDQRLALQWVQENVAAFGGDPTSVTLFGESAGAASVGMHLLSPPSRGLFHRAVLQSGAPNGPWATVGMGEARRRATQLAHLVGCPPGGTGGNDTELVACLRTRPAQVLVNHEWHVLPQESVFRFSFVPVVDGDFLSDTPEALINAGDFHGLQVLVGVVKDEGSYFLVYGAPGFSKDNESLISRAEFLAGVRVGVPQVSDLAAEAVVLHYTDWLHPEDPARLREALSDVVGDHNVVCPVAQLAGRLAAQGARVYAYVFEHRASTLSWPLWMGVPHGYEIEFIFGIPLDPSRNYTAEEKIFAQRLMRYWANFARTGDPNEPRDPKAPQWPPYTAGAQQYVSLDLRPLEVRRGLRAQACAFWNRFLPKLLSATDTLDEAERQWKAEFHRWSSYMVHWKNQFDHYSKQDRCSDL
pIC50: −log10 of the molar value.
// map pIC50 onto a label; ranges b0: < 6; b1: ≥ 6 and < 7; b2: ≥ 7

[
  {
    "compound": "COc1cc2c(cc1OC)C(=O)C(CC1CCN(Cc3cccc(F)c3)CC1)C2 (stereo unspecified)",
    "class.label": "b2"
  }
]

## Input Hey, which category is COc1cc2c(cc1OC)C(=O)C(CC1CCN(Cc3ccccc3C)CC1)C2 (stereo unspecified) in, do you know?
## Output b1

## Input Hey, which category is COc1cc2c(cc1OC)C(=O)C(CC1CCN(Cc3cccc([N+](=O)[O-])c3)CC1)C2 (stereo unspecified) in, do you know?
## Output b1

## Input Hey, which category is COc1cc2c(cc1OC)C(=O)C(CC1CCN(Cc3cccc(F)n3)CC1)C2 (stereo unspecified) in, do you know?
## Output b1

## Input Hey, which category is COc1cc2c(cc1OC)C(=O)C(CC1CCN(Cc3ccc(F)cc3)CC1)C2 (stereo unspecified) in, do you know?
## Output b2

## Input Hey, which category is COc1cc2c(cc1OC)C(=O)C(CC1CCN(Cc3ccc4ccccc4n3)CC1)C2 (stereo unspecified) in, do you know?
## Output b0

## Input Hey, which category is COc1cc2c(cc1OC)C(=O)C(CC1CCN(Cc3ccccc3[N+](=O)[O-])CC1)C2 (stereo unspecified) in, do you know?
## Output b0

## Input Hey, which category is COc1cc2c(cc1OC)C(=O)C(CC1CCN(Cc3ccc([N+](=O)[O-])cc3)CC1)C2 (stereo unspecified) in, do you know?
## Output b0

## Input Hey, which category is COc1cc2c(cc1OC)C(=O)C(CC1CCN(Cc3ccccc3F)CC1)C2 (stereo unspecified) in, do you know?
## Output b2

* * *

# assayed.system: UniProtKB P22303
// map IC50 onto a label; ranges I (below 2 µM), II (2 µM to below 5 µM), III (5 µM or more)

[
  {
    "compound": "COc1cc2c(cc1OC)C(=O)C(CC1CCN(Cc3ccc(Cl)cc3)CC1)C2 (stereo not given)",
    "assayed.system": "UniProtKB P22303",
    "class.label": "II"
  },
  {
    "compound": "COC(=O)c1cccc(CN2CCC(CC3Cc4cc(OC)c(OC)cc4C3=O)CC2)n1 (stereo not given)",
    "assayed.system": "UniProtKB P22303",
    "class.label": "III"
  },
  {
    "compound": "COc1cc2c(cc1OC)C(=O)C(CC1CCN(Cc3ccc4cccc(O)c4n3)CC1)C2 (stereo not given)",
    "assayed.system": "UniProtKB P22303",
    "class.label": "III"
  },
  {
    "compound": "COc1cc2c(cc1OC)C(=O)C(CC1CCN(Cc3ccc(O)c4ncccc34)CC1)C2 (stereo not given)",
    "assayed.system": "UniProtKB P22303",
    "class.label": "III"
  },
  {
    "compound": "COc1cc2c(cc1OC)C(=O)C(CC1CCN(Cc3cccc(Cl)c3)CC1)C2 (stereo not given)",
    "assayed.system": "UniProtKB P22303",
    "class.label": "I"
  },
  {
    "compound": "COc1cc2c(cc1OC)C(=O)C(CC1CCN(Cc3ncccc3C)CC1)C2 (stereo not given)",
    "assayed.system": "UniProtKB P22303",
    "class.label": "I"
  },
  {
    "compound": "COc1cc2c(cc1OC)C(=O)C(CC1CCN(Cc3ccc(C(F)(F)F)cc3)CC1)C2 (stereo not given)",
    "assayed.system": "UniProtKB P22303",
    "class.label": "III"
  }
]

// switching to the query compound
## Input Hey, which category is COc1cc2c(cc1OC)C(=O)C(CC1CCN(Cc3cccc(C(F)(F)F)c3)CC1)C2 (stereo not given) in, do you know?
## Output II
